- System: primary human hepatic stellate cells (donor 1)
- protocol text: scaled lipid accumulation score (0 = DMSO-like, 1 = nortriptyline-like); higher = stronger HSC inactivation (lipid re-accumulation), active = hit call of the paper
- settings: library stock concentration: 10 mM; 48 h
Where a name gives a salt, the structure may show the parent alone. Screen size: about 5,800 compounds; about 620 (11%) showed activity.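 How the source made its calls: active = score above a cut-off or among the top three wells of a plate; in these data no inactive exceeds 0.85.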 The entries come from a sample that favours actives as a whole.
Bench note: report the call from active, inactive

Look over these answered cases.
>>> assigned_label("CNC(=O)c1nn(C)c2c1C(C)(C)Cc1cnc(Nc3ccc(N4CCN(C)CC4)cc3)nc1-2")
"inactive"
>>> assigned_label("Clc1ccc2c(c1)CCc1cccnc1C2=C1CCNCC1")
"active"
>>> assigned_label("Cc1ccccc1/C=C/C1=NCCN1 [Metrazoline oxalate]")
"inactive"

Please state the recorded outcome for this molecule: Cc1[nH]c(C=C2C(=O)Nc3ccc(S(=O)(=O)N(C)c4cccc(Cl)c4)cc32)c(C)c1C(=O)N1CCN(C)CC1
active

Could you check what this test reported for O=C(Nc1cccc(C(F)(F)F)c1)Nc1cc(S(=O)(=O)NC2CC2)ccc1-c1ccsc1 ?
inactive

What did this assay record as the result for COc1ccc2c(Oc3ccc(NC(=O)c4c(C)n(CC(C)(C)O)n(-c5ccccc5)c4=O)nc3)ccnc2c1 ?
inactive

Please indicate how the test categorized O=C(CCc1ccncc1)NNC(=O)N1Cc2ccccc2Oc2ccc(Cl)cc21 .
inactive

* * *

- System: primary human hepatic stellate cells (donor 1)
- protocol text: scaled lipid accumulation score (0 = DMSO-like, 1 = nortriptyline-like); higher = stronger HSC inactivation (lipid re-accumulation), active = hit call of the paper
- settings: library stock concentration: 3.33 mM; 48 h
Counter-ions that a name gives are not always drawn. About 620 (11%) of roughly 5,800 compounds showed activity.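 The calls were made as follows: active = score above a cut-off or among the top three wells of a plate; in these data no inactive exceeds 0.85.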 This excerpt belongs to a sample that is enriched for actives.
Select the matching outcome among active, inactive

Example entries begin here.
>>> assigned_label("Cn1cc(C2=C(c3cn(CCCSC(=N)N)c4ccccc34)C(=O)NC2=O)c2ccccc21")
"inactive"
>>> assigned_label("O=C(Nc1ccc(Cl)cc1)c1ccccc1NCc1ccncc1")
"inactive"
>>> assigned_label("Cc1[nH]c(/C=C2\\C(=O)Nc3ccccc32)c(C)c1CCC(=O)O [TSU-68 (SU6668, Orantinib)]")
"inactive"
>>> assigned_label("CNCCCC12CCC(c3ccccc31)c1ccccc12 [Maprotiline HCl]")
"inactive"
>>> assigned_label("Nc1ccccc1NC(=O)c1ccc(CNc2nccc(-c3cccnc3)n2)cc1")
"active"
>>> assigned_label("NCCCn1cc(C2=C(c3c[nH]c4ccccc34)C(=O)NC2=O)c2ccccc21 [Bisindolylmaleimide III, Hydrochloride]")
"inactive"
>>> assigned_label("CC(=O)Nc1ccc(C(=O)Nc2ccccc2N)cc1")
"inactive"

How was Cn1cc(C2=C(c3cn(CCCSC(=N)N)c4ccccc34)C(=O)NC2=O)c2ccccc21 [Ro 31-8220 Mesylate] classified in this test?
inactive

* * *

- Tested on: primary human hepatic stellate cells (donor 1)
- protocol text: scaled lipid accumulation score (0 = DMSO-like, 1 = nortriptyline-like); higher = stronger HSC inactivation (lipid re-accumulation), active = hit call of the paper
- settings: library stock concentration: 10 mM; 48 h
Structures can show the parent of a compound that is named as a salt. The campaign covered roughly 5,800 compounds. About 620 (11%) showed activity.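 How the source made its calls: active = score above a cut-off or among the top three wells of a plate; in these data no inactive exceeds 0.85.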 The sample holds actives, similar compounds and a random draw of the others, so the mix is not that of the screen.
Respond with a class label; see T for active, F for inactive

Observe how each entry below is paired with its result.
>>> assigned_label("CCO/C(O)=C1\\C(COCCN)=NC(C)=C(C(=O)OC)C1c1ccccc1Cl (centres undefined)")
"T"
>>> assigned_label("CC1(C)CC(=O)c2c(ccc(C(=O)CC(N)CO)c2N)O1 (centres undefined)")
"T"
>>> assigned_label("CCCC(=O)OCOC(=O)C1=C(C)NC(C)=C(C(=O)OC)C1c1cccc(Cl)c1Cl (centres undefined) [Clevidipine Butyrate]")
"F"
>>> assigned_label("COc1cc2nc(N3CCN(C(=O)C4COc5ccccc5O4)CC3)nc(N)c2cc1OC (centres undefined) [Doxazosin]")
"F"
>>> assigned_label("COc1ccc([C@H]2CNC(=O)C2)cc1OC1CCCC1 [(S)-(+)-Rolipram]")
"F"
>>> assigned_label("NC1=N[C@@]2(c3cc(NC(=O)c4ccc(F)cn4)ccc3F)COC[C@H]2CS1")
"F"
>>> assigned_label("CNCCCC12CCC(c3ccccc31)c1ccccc12 [Maprotilline HCl]")
"T"
>>> assigned_label("COc1cc2nc(N(C)CCCNC(=O)C3CCCO3)nc(N)c2cc1OC (centres undefined) [Alfluzocin]")
"F"

State the result this test recorded for CCOC(=O)C1=C(COCCN)NC(C)=C(C(=O)OC)C1c1ccccc1Cl (centres undefined) .
F
